measurement target: Grb2 SH2 (UniProt P62993)
test summary: SH2 binding enrichment of the phosphorylated peptide, bacterial display (enrichment ratio); higher = better substrate or ligand; peptides without Tyr show the background;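 note: peptide library displayed on the E. coli surface as eCPX fusions, selected cells deep-sequenced, score is each peptide's frequency after selection divided by its frequency in the input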
measured quantity: SH2 binding enrichment

Worked examples follow.
# sequence entry, measured quantity, recorded measurement
data = [
    ("VFFFSYLLKNH [PTEN_Y180_YF]", "SH2 binding enrichment", 0.982),
    ("VDASYCGGRGV [ANTXR2_Y381_Y381C]", "SH2 binding enrichment", 0.62),
    ("TKFVAYIESQG [KDM4B_Y34_N29T_YF]", "SH2 binding enrichment", 0.736),
    ("IYLGAYDRFLP [SLC22A5_Y486_V481I]", "SH2 binding enrichment", 0.979),
    ("EFTPLYPMLFG [SCLY_Y280]", "SH2 binding enrichment", 0.993),
]

I. ADAHHYLCKEV [JAK2_Y382]
II. LKYAIYFEVRE [LAMA2_Y1258_A1261V]
For the two items I and II , which reports the higher SH2 binding enrichment value? // output: label of the selected item
I

I. PLLLSYFLIKW [NUP160_Y773_YF]
II. TVNIRYLLFPS [SERAC1_Y548_S543T]
Which value of SH2 binding enrichment is smaller, the one for I or the one for II ? Bench note: the answer is the label of the chosen record.
I
(I: 1.13, II: 1.9)
